# experimental_target: ATP-binding cassette transporter A1 (ABCA1) (UniProt P41233 1-2261, limits assumed)
# Sequence (P41233 whole entry): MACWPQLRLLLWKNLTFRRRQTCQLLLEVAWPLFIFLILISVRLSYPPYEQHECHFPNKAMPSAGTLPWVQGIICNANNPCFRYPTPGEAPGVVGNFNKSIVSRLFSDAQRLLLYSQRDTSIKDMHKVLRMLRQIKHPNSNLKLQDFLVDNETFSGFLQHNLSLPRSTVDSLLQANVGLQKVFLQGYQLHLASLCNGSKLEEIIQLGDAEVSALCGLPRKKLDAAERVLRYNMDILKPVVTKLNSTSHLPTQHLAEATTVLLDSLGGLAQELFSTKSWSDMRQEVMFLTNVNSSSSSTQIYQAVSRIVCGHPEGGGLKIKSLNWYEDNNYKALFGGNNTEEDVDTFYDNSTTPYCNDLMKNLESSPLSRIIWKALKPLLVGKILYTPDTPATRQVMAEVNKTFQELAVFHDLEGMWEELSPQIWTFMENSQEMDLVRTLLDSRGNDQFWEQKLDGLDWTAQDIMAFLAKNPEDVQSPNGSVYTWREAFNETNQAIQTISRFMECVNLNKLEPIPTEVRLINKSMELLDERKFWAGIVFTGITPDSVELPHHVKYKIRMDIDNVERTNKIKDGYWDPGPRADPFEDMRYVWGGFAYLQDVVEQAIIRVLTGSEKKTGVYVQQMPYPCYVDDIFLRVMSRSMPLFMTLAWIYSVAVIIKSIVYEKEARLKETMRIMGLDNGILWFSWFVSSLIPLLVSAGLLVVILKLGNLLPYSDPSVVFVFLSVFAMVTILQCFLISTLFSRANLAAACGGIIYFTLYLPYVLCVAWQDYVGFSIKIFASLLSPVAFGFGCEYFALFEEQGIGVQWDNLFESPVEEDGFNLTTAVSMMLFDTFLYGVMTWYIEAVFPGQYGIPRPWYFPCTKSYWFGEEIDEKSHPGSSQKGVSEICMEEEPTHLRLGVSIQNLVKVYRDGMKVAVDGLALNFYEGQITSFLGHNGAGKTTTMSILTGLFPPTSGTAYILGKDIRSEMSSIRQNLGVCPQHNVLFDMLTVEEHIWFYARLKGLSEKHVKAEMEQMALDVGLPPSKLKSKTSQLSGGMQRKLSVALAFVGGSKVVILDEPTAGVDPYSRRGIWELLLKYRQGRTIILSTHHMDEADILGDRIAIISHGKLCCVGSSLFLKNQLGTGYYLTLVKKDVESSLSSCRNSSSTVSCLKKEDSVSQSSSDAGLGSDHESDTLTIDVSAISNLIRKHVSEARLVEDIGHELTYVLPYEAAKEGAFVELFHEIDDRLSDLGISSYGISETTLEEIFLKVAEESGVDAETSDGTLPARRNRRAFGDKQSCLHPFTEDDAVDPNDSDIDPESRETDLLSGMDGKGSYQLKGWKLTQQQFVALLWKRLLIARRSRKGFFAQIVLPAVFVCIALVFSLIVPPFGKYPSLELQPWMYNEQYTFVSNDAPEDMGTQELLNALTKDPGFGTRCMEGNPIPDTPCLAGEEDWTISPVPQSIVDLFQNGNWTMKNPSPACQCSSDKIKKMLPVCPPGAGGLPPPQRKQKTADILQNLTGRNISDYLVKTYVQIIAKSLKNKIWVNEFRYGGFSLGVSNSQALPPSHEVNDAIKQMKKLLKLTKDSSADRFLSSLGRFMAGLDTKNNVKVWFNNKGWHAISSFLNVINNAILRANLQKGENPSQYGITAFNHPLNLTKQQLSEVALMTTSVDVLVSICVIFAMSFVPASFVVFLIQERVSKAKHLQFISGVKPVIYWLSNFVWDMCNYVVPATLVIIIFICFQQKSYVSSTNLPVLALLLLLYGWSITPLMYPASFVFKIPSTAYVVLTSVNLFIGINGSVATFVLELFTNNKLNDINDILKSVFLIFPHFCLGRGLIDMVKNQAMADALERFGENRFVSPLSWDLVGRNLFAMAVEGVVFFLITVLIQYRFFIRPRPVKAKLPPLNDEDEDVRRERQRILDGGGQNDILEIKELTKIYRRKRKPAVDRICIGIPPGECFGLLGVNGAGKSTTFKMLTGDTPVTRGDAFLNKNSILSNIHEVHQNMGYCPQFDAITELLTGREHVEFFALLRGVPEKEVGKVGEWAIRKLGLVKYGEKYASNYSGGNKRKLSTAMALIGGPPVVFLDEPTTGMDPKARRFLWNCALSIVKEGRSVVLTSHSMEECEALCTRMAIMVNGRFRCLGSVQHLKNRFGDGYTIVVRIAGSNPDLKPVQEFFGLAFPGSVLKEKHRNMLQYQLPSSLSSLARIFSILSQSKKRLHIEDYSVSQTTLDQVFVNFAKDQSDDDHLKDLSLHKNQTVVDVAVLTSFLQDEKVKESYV
# protocol_description: cell-based or functional assay
observable: % cholesterol efflux/4 hours at 0.3 µg/ml (%)

ELREKLEAWFELFREFLERF [SEQ ID NO:2 peptide] :: 0.52
EVREKLEAWFELFREFLERF [N965-7] :: 0.3
EVREKLEAWFELFREFAERFKS [N965-2] :: 0.13
EVREKLEAWFELFREFLERFLS [N965-5] :: 0.9
EVREKLEAWFELFREFLERFL [N965-6] :: 0.49
EVREKLEAWFELFREFAERFLS [N965-3] :: 0.47

(P) ELREKLEAWRELFEEFFARFLS [N965-9]
(Q) EVREKLEAWFEAFREFAERFKS [N965-1]
(R) EVREKLEAWFELFREFLERFKS [N965-4]
Query: Please give the order of these binders when sorted by % cholesterol efflux/4 hours at 0.3 µg/ml, largest value leading. // list labels; follow requested order
Reply: R, P, Q
(R: 0.67%, P: 0.41%, Q: 0.13%)
